# Test protocol: Liver microsomes in vitro stability (human)
# Assay type: in vitro ADME
# Assay conditions: read-out: T1/2/min (H)
# Method: 1. Preparation of Working Solution: Microsomes were taken out from the −80° C. refrigerator, rapidly melted in a 37° C. water bath and placed on ice until ready to use. The test article was diluted with DMSO to prepare a 10 mM stock solution, and then diluted with acetonitrile to a 0.5 mM secondary stock solution. […] The diluted starter solution was added in sufficient quantity to the dispensing plate to facilitate the multichannel pipette aspiration operation. […]
Metric: half-life at 1 µM (min)

> print(dat)
                                   compound             metric  unit.string  meas.value
1  C=CCn1c(=O)c2cnc(Nc3ccc(CC4C(=O)C5CCN4CC5)cc3)nc2n1-c1cccc(N=S(C)(C)=O)n1 (stereo not shown) [Compound 6]  half-life at 1 µM          min        5.16
2  C=CCn1c(=O)c2cnc(Nc3ccc(OC4CN5CCC4CC5)cc3)nc2n1-c1cccc(C(C)(C)O)n1 (stereo not shown) [Compound 4]  half-life at 1 µM          min        22.2
3  C=CCn1c(=O)c2cnc(Nc3ccc(N4CC5CC(C4)N5C)cc3)nc2n1-c1cccc(C(C)(C)O)n1 [Compound 27]  half-life at 1 µM          min         105
4  C=CCn1c(=O)c2cnc(Nc3ccc(N4CC5CC(C4)N5C)cc3)nc2n1-c1ccc2ccn(CC)c2n1 [Compound 51]  half-life at 1 µM          min          19
5  C=CCn1c(=O)c2cnc(Nc3cccc(CC4C(=O)C5CCN4CC5)c3)nc2n1-c1cccc(N=S(C)(C)=O)n1 (stereo not shown) [Compound 10]  half-life at 1 µM          min        8.31
6  C=CCn1c(=O)c2cnc(Nc3ccc(OCC)c(CC4C(=O)C5CCN4CC5)c3)nc2n1-c1cccc(N=S(C)(C)=O)n1 (stereo not shown) [Compound 9]  half-life at 1 µM          min        2.82
7  C=CCn1c(=O)c2cnc(Nc3ccc(N4CCOC5(CCCN(C)C5)C4)cc3)nc2n1-c1cccc(C(C)(C)O)n1 (stereo not shown) [Compound 46]  half-life at 1 µM          min        16.8
